Listing of entries alongside the reported composite z-score.
assay: probe aCHRDL2 binding to arrayed compounds – biochemical, biotinylated probe, 635/667 nm fluorescence, primary screen (AID 1100); details: small-molecule microarray, higher = more signal

smiles_entry=COCCCNC(=O)[C@@]1(Cc2ccccc2N=[N+]=[N-])N=C(c2ccc(OCCCO)cc2)O[C@H]1c1ccccc1CN=[N+]=[N-] result=1.18
smiles_entry=COc1cc2c(cc1OC)CN(C(=O)[C@@H]1[C@H]3C(=O)O[C@H](c4ccccc4)[C@H](c4ccccc4)N3[C@H](c3ccc(O)cc3)[C@@]13C(=O)Nc1ccc(C#CCNC(N)=O)cc13)CC2 result=0.0095

Next, consider the following compound.
Sample "COC(=O)[C@@]1(Cc2ccccc2)[C@H]2c3cc(C(=O)N4CCCC4)n(CCO)c3C[C@H]2CN1C(=O)c1ccccc1" ; composite z-score observed: 1.5

====

target: Luciferin 4-monooxygenase (Photinus pyralis); assay: inhibition of purified Photinus pyralis luciferase – biochemical, luminescence, purified enzyme, 2006 set, primary screen (AID 1141); conditions: purified firefly luciferase, SteadyGlo luminescence, 30 min; higher = more signal, called active from +8 up or from −8 down;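 note: cell-free assay with purified firefly luciferase at 100 ng per well in PBS; test concentration not given here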
reported_property: z-score
Answer with a bare number; do not write a unit.

Worked set:
compound=CN(C)CCCCCCNC(=O)[C@@H]1C[C@@H]2C(=O)NCC(=O)N2[C@@H]1c1ccc(O)cc1 test_system="Luciferin 4-monooxygenase (Photinus pyralis)" reported_property=z-score numeric_result=0.335
compound=COc1ccccc1CN1C(=O)c2ccccc2[C@@]2(Cc3ccccc3N(C3CC3)C2=O)[C@@H]1c1ccc(CO)cc1 test_system="Luciferin 4-monooxygenase (Photinus pyralis)" reported_property=z-score numeric_result=-0.379
compound=C=CCN1C(=O)[C@@]2(O[C@@H](CCn3cc([C@H](O)c4ccccc4)nn3)[C@H]([Si](C)(C)c3ccc(OC)cc3)[C@H]2C)c2cc(NC(=O)c3ccc(OC)cc3)ccc21 test_system="Luciferin 4-monooxygenase (Photinus pyralis)" reported_property=z-score numeric_result=0.427

z-score on Luciferin 4-monooxygenase (Photinus pyralis) for "CC(C)CN1C(=O)[C@@]2(Cc3ccccc31)c1ccccc1C(=O)N(Cc1ccccc1)[C@H]2c1ccc(CO)cc1" is -0.336

// compound "COCCOC(=O)N1C(=O)[C@@]2(c3cc(C#CCCO)ccc31)[C@H](c1ccc(OCCO)cc1)N1[C@H](c3ccccc3)[C@H](c3ccccc3)OC(=O)[C@H]1[C@@H]2C(=O)N1CCc2cc(OC)c(OC)cc2C1" , assay Luciferin 4-monooxygenase (Photinus pyralis), z-score value: -0.856

The observed z-score for "C=CCN1C(=O)[C@@]2(O[C@@H](CCO)[C@H]([Si](C)(C)c3ccc(OC)cc3)[C@H]2C)c2cc(NC(=O)[C@H](C)O)ccc21" when tested with Luciferin 4-monooxygenase (Photinus pyralis) stands at -0.676

Item C=CCC(OC(C)=O)[C@@H]1[C@@H](N(Cc2cccc3ccccc23)C(=O)Cc2ccc(F)cc2)c2cc(OCCCO)ccc2N1C(=O)Cc1ccc(OC)cc1 (some centres not stated) was tested on Luciferin 4-monooxygenase (Photinus pyralis); the reported z-score is 0.678

====

experiment: binders from COS7 lysate, DM2A8 probe, primary screen, torsin A project, cell lysate, small-molecule microarray, fluorescence 635/667 (AID 1065); conditions: higher = more signal, COS7 lysate expressing mutant human TOR1A
Rule: 1 (yes) for composite z-score not less than 0.5, 0 (no) for anything less.

Solved cases below.
compound=COc1cc2c(cc1OC)CN(C(=O)[C@@H]1[C@H]3C(=O)O[C@H](c4ccccc4)[C@H](c4ccccc4)N3[C@H](c3ccc(OCCO)cc3)[C@@]13C(=O)Nc1ccc(C#CCCO)cc13)CC2 category="1 (yes)"
compound="CC1CC/C=C\\[C@H]2OC34C=CCN(c5ccc(Cl)cc5)C(=O)[C@H]3N(C(CO)C(C)C)C(=O)[C@]4(C)C2C(=O)O1 (some centres not stated)" category="1 (yes)"
compound="OCCCC1=CC(c2cccs2)N(Cc2cccc(OC(F)(F)F)c2)CC1 (configuration not stated)" category="0 (no)"
compound=CCC[C@@H]1C[C@@]1(CCC)[C@@H](NC(=O)c1cccs1)c1ccc(Cl)cc1 category="0 (no)"
compound=NC(=O)[C@@H]1[C@H]2C(=O)O[C@H](c3ccccc3)[C@H](c3ccccc3)N2[C@H](c2ccccc2OCCO)[C@@]12C(=O)Nc1ccc(C#CCCO)cc12 category="0 (no)"

QUERY: Form field: composite z-score at least 0.5? Entry: "C=CCN1C(=O)[C@@]2(O[C@@H](CCO)[C@H]([Si](C)(C)c3ccc(OC)cc3)[C@H]2C)c2cc(NC(=O)[C@H](C)O)ccc21"
RESULT: 1 (yes)

QUERY: Does composite z-score meet or surpass 0.5 for "COC(=O)[C@@]1(Cc2ccccc2)[C@H]2c3cc(C(=O)N(C)C)n(Cc4ccccn4)c3C[C@H]2CN1C(=O)c1ccccc1" ?
RESULT: 1 (yes)

====

biological target: Follistatin-related protein 3 (Homo sapiens) (UniProt O95633); assay: compounds binding follistatin-related protein 3 – biochemical, small-molecule microarray, 635 nm fluorescence, primary screen (AID 1105); conditions: FSTL3 binding, higher = more signal;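 note: score merges emission near 667 nm and signal to noise per printed spot across three slides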
Sequence (O95633 whole entry, looked up): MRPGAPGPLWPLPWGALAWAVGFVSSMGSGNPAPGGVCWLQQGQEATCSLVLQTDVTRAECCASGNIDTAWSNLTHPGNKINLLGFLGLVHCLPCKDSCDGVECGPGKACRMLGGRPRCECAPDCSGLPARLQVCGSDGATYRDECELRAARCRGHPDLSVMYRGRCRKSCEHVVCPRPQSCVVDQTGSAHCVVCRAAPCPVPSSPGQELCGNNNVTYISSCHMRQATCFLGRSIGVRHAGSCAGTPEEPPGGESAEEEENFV
Classification field: enter fulfilled for composite z-score values not below 0.8, not fulfilled for values below it.

Record excerpt, results attached:
molecule="N#Cc1ccc(NN2C(C(O)c3ccccc3)C=CC3C(=O)N(c4ccccc4)C(=O)C32)cc1 (stereo not drawn)" category="not fulfilled"
molecule="C=C(C)[C@@H]1CC=C(C(O)C2C=CC3C(=O)N(C4CCCCC4)C(=O)C3N2Nc2ccc(OC)cc2)CC1 (stereo partly drawn)" category=fulfilled
molecule=CC(=O)NCCCC[C@@H]1NC(=O)[C@H]2C[C@@H](C(=O)NCCCCCN)[C@@H](c3cccc(OCCO)c3)N2C1=O category="not fulfilled"
molecule=NC(=O)[C@H]1[C@@H]2C(=O)O[C@@H](c3ccccc3)[C@@H](c3ccccc3)N2[C@@H](c2ccc(O)cc2)[C@]12C(=O)Nc1ccc(C#CC3(O)CCCCCC3)cc12 category=fulfilled
molecule=COCCCNC(=O)[C@]1(Cc2ccccc2CN=[N+]=[N-])N=C(c2ccc(OCCCO)cc2)O[C@@H]1c1ccccc1CN=[N+]=[N-] category="not fulfilled"

QUERY: Kindly determine if composite z-score recorded for "COC(=O)[C@@]1(Cc2ccc(F)cc2)[C@H]2c3cc(C(=O)N4CCCC4)n(Cc4ccccc4)c3C[C@H]2CN1C(=O)c1ccccc1" is above or exactly 0.8.
RESULT: not fulfilled

QUERY: I'd appreciate it if you could say whether "NCCCCCCNC(=O)[C@H]1C[C@H]2C(=O)N3CCC[C@H]3C(=O)N2[C@H]1c1ccc(O)cc1" has composite z-score at least equal to 0.8.
RESULT: not fulfilled

QUERY: For this molecule, is measured composite z-score 0.8 or higher? "COC(=O)[C@]1(Cc2ccccc2CN=[N+]=[N-])N=C(c2ccc(OCCCO)cc2)O[C@@H]1c1ccccc1CN=[N+]=[N-]"
RESULT: not fulfilled

====

assay: small molecules captured by biotinylated probe aFGF2 – biochemical, small-molecule microarray, fluorescence 635/667, stem cell growth factor project, primary screen (AID 1067); details: higher = more signal;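 note: measures binding of biotinylated aFGF2 protein to printed compounds on slides; z-score merges feature fluorescence and signal-to-noise across triplicate slides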
reported_property: composite z-score
Give the figure only, with no unit attached.

Take a look at these entries with their results.
smiles_entry=COc1ccc([Si](C)(C)[C@@H]2[C@@H](CC(=O)N3Cc4ccccc4C[C@H]3CO)O[C@]3(C(=O)N(Cc4cccc(N5CCCCC5=O)c4)c4ccccc43)[C@H]2C)cc1 numeric_result=0.0207
smiles_entry=CC1=C2[C@@H](CCc3ccccc3)OB(O)C[C@@H]2[C@@H]2C(=O)C=CC(=O)[C@@H]2C1 numeric_result=-0.0887
smiles_entry=CCCNC(=O)[C@@]1(Sc2ccc(C)cc2)CC(=O)N(Cc2ccccc2)[C@@H]1c1ccc(CO)cc1I numeric_result=-0.0917
smiles_entry=COCCOC(=O)N1C(=O)[C@@]2(c3cc(C#CCCO)ccc31)[C@H](C(=O)N1CCc3cc(OC)c(OC)cc3C1)[C@H]1C(=O)O[C@H](c3ccccc3)[C@H](c3ccccc3)N1[C@@H]2c1ccc(OCCO)cc1 numeric_result=-0.0867
smiles_entry=COCCCNC(=O)[C@]1(Cc2ccccc2)N=C(c2ccc(OCCCO)cc2)O[C@@H]1c1ccccc1N=[N+]=[N-] numeric_result=0.12
smiles_entry=C[C@@H]1ON(c2ccccc2)[C@H](c2ccccc2)[C@H]1C(=O)N1C(=O)OC[C@H]1Cc1ccccc1 numeric_result=-0.127

# evaluate next
// recorded composite z-score for "CCOC(=O)C[C@H]1[C@H](OC(=O)c2ccccc2-c2ccccc2)[C@@H](NC(=O)c2ccccc2)c2cc(OCCCO)ccc2N1C(=O)Cc1ccc(OC)cc1" : -0.0569

====

assay: resazurin metabolic signal in A549 cells – cell-based, resazurin fluorescence, 24 h, PK04 Diversity Set, profiling panel (AID 1171); details: A549 viability, higher = more signal, called active from +8 up or from −8 down; note: test concentration not given here
Entries annotated with measured z-score
Provide a numeric answer; units are not to be included.

Worked examples, 3 compounds total:
compound="Cc1cc(C)c(C(O)C2C=CC3C(=O)N(c4ccccc4)C(=O)C3N2Nc2ccc([N+](=O)[O-])cc2)c(C)c1 (configuration not stated)" numeric_result=0.634
compound=NC(=O)NCC#Cc1ccc2c(c1)[C@]1(C(=O)N2)[C@H](c2ccc(OCCO)cc2)N2[C@H](c3ccccc3)[C@H](c3ccccc3)OC(=O)[C@H]2[C@@H]1C(=O)N1CCCCCCC1 numeric_result=0.252
compound="C=CCC(OC(C)=O)[C@@H]1[C@@H](N(Cc2cccc3ccccc23)C(=O)Cc2ccc(F)cc2)c2cc(OCCCO)ccc2N1C(=O)Cc1ccc(OC)cc1 (some centres not stated)" numeric_result=0.641

"CN(C)C(=O)[C@@]1(CCC(=O)OC(C)(C)C)N=C(c2ccc(OCCCO)cc2)O[C@H]1c1ccccc1N=[N+]=[N-]" has a reported z-score of 0.966

Quick note, z-score for COc1cc(C(O)C2C=CC3C(=O)NC(=O)C3N2Nc2ccc(Cl)cc2Cl)cc(OC)c1OC (configuration not stated) landed at -0.315

Entry "COCCOC(=O)N1C(=O)[C@@]2(c3ccccc31)[C@H](c1ccccc1OCCO)N1[C@H](c3ccccc3)[C@H](c3ccccc3)OC(=O)[C@H]1[C@@H]2C(=O)N1CCc2cc(OC)c(OC)cc2C1" ; z-score = -0.395

// "C=C(COC)/C(=C/C[C@@H](OC(=O)c1ccncc1)c1cccc(OCCO)c1)c1cc(C(=O)OC)ccc1OC" : z-score value = -1.8
